# Test system: COLO 205 colon
# Procedure summary: NCI tumour cell line growth inhibition, 48 h
Metric: TGI

Q: Look at this molecule and give its reported TGI. COC(=O)CCCCCOS(=O)(=O)c1ccc(C)cc1
Result: > 100 µM

Q: Data request, read-out TGI, for O=S(=O)(O)c1ccc(N=Nc2ccc(N=Nc3c(O)ccc4ccc(S(=O)(=O)O)cc34)cc2)cc1
Result: > 100 µM

Q: Need TGI, item COc1cccc(/C=C2\N=C(Cl)OC2=O)c1O
Result: > 100 µM

Q: Name the reported TGI value associated with the molecule Cc1cc(C)n(CN(CCCCO)Cn2nc(C)cc2C)n1
Result: 31.7 µM

Q: # TGI lookup, item COc1ccccc1N1C(=O)CSC1c1cccc(Oc2ccccc2)c1 (stereo unspecified)
Result: 34.9 µM

Q: Looking for the measured TGI of COc1ccc2nc(N/N=C/c3ccc(C)s3)cc(C)c2c1 , can you help?
Result: 38.5 µM

Q: Could you tell me which TGI is on file for CCCCCCCCCCCCCCCCCC1=NC(C)(C)CN1C(C)(C)CO ?
Result: 1.38 µM

Q: I have this molecule here, CC(C)(C)c1cc[n+](C[n+]2ccc(C(C)(C)C)cc2)cc1 , and I need its recorded TGI.
Result: > 100 µM

Q: Bench note: what TGI did CN1CCN(c2ccncc2S(=O)(=O)N2CCN(C)CC2)CC1 show?
Result: > 100 µM

Q: Given the molecule Cc1nc(-c2cccnc2)sc1C(=O)CC(=O)C(=O)Nc1cccc(NC(=O)C(=O)CC(=O)c2sc(-c3cccnc3)nc2C)n1 , what is its reported TGI?
Result: > 100 µM

Now turn to the next molecule.
Q: Fill blank: measured TGI of the molecule CCCC(=O)Nc1cc(/C=C/C(=O)N2CC(CCl)c3ccc([N+](=O)[O-])cc32)n(C)c1 (stereo unspecified) is ____.
Result: > 100 µM
